- experiment_notes: solvent given as SMILES
- details: in CC(C)CO
// Condition not met strictly below 2 ns in fluorescence lifetime; Condition met otherwise

> print(dat)
                                   compound              label
1  COC(=O)C(Cc1ccc2oc(-c3ccc(N(C)c4ccccc4)cc3)nc2c1)NC(=O)OC(C)(C)C (stereo not given)      Condition met
2  COC(=O)C(Cc1ccc2oc(-c3ccc(N(C)C)cc3)nc2c1)NC(=O)OC(C)(C)C (stereo not given)  Condition not met
3     N#Cc1ccc(/C=C2\OC(=O)c3cc(N)ccc32)cc1      Condition met
4  COC(=O)C(Cc1ccc2oc(-c3ccc(Nc4ccccc4)cc3)nc2c1)NC(=O)OC(C)(C)C (stereo not given)      Condition met
5  COC(=O)C(Cc1ccc2oc(-c3ccc4c(c3)c3ccccc3n4-c3ccccc3)nc2c1)NC(=O)OC(C)(C)C (stereo not given)  Condition not met
